Tested on: PCSK9-FS[1:33]-GFP translation
EXPERIMENT: WG IVTT microplate activity assay, PCSK9-FS[1:33]-GFP frameshift counter template
Assay type: biochemical, wheat germ
MEASUREMENT PARAMETERS: frameshift control
REPORTED ENDPOINT: activity on PCSK9-FS[1:33]-GFP translation (in words)

1. Cc1cccc2ccnc(N(C(=O)[C@H]3CCCN(C(=O)c4ccc(-c5cnco5)cc4)C3)[C@@H]3CCCNC3)c12	minimal activity
2. Cc1cccc2ccnc(N(C(=O)[C@H]3CCCN(C(=O)c4ccc(N5CCCC5)nc4)C3)[C@@H]3CCCNC3)c12	minimal activity

Cited source: paper PMC11503492
